Item-by-item account of % Retained
Assay: Plasma stability, human plasma
Format: in vitro ADME, Humans
Settings: 37° C., 30 min
Note: a bare number is incomplete; add the unit.

Field request: % Retained | item: `C[C@@H]1CCN(C(=O)CC#N)C[C@@H]1N(C)c1ncnc2c1ccn2C(=O)N(C)CCOC(=O)c1ccncc1`
0.9%

----------
Assay: Plasma stability, human plasma
Format: in vitro ADME, Humans
Settings: 37° C., 120 min
MEASUREMENT_NAME: % Retained (%)
Give the quantity in %, number only.

These recorded examples may help you get a feel for the data.
COMPOUND_STRUCTURE	U	% Retained
C[C@@H]1CCN(C(=O)CC#N)C[C@@H]1N(C)c1ncnc2c1ccn2C(=O)N(C)CCOC(=O)c1ccncc1	%	0.0
CC(=O)OCCN(C)C(=O)n1ccc2c(N(C)[C@H]3CN(C(=O)CC#N)CC[C@H]3C)ncnc21	%	7.4
CC(C)C(=O)OCCN(C)C(=O)n1ccc2c(N(C)[C@H]3CN(C(=O)CC#N)CC[C@H]3C)ncnc21	%	0.0
C[C@@H]1CCN(C(=O)CC#N)C[C@@H]1N(C)c1ncnc2c1ccn2C(=O)N(C)CCOC(=O)C1CCN(C)CC1	%	3.8
CCCCC(=O)OCCN(C)C(=O)n1ccc2c(N(C)[C@H]3CN(C(=O)CC#N)CC[C@H]3C)ncnc21	%	0.0

Recorded % Retained for `COCCOCC(=O)OCCN(C)C(=O)n1ccc2c(N(C)[C@H]3CN(C(=O)CC#N)CC[C@H]3C)ncnc21` , please?
0.0

What do we get for `C[C@@H]1CCN(C(=O)CC#N)C[C@@H]1N(C)c1ncnc2c1ccn2C(=O)N(C)CCOC(=O)C1CCCCC1` ?
0.0

Proceed to `C[C@@H]1CCN(C(=O)CC#N)C[C@@H]1N(C)c1ncnc2c1ccn2C(=O)N(C)CCOC(=O)C(C)(C)C`
1.6
